This collection of values is drawn from PubChem BioAssay AID1963420.

Tested on: 494315-158-R-J1-PDC complex spheroid growth, percent test/control;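 further: compound exposure lasted seven days after spheroids formed for three days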
Test: Anticancer human tumor 494315-158-R-J1-PDC patient-derived soft tissue sarcoma cell line growth inhibition [Asc]
Conditions: second compound 0.0949 µM; first compound 0.00316 µM; active compounds read low
Source text: Multicellular complex tumor spheroid response to apoptosis pathway targeting inhibitors Alrizomadlin, Pelcitoclax, and Dasminapant in combination with a variety of drugs and investigational agents in selected tumor cell lines […] Compounds. […] If the clinical Cmax for an agent had not been determined, the highest concentration tested was 10 microM. […]
observation.type: viability, T/C (%)
Just the number in %, nothing appended.

// known answers, use as guide
molecule: CCN1CCN(Cc2ccc(Nc3ncc(F)c(-c4cc(F)c5nc(C)n(C(C)C)c5c4)n3)nc2)CC1 + CCN1C(C(=O)NC23CCC(C(=O)O)(CC2)CC3)C(c2cccc(Cl)c2F)C2(C(=O)Nc3cc(Cl)ccc32)C12CCCCC2
readout.units: %
viability, T/C: 105

molecule: O=C(c1ccc(F)c(F)c1Nc1ccc(I)cc1F)N1CC(O)([C@@H]2CCCCN2)C1 + CCN1C(C(=O)NC23CCC(C(=O)O)(CC2)CC3)C(c2cccc(Cl)c2F)C2(C(=O)Nc3cc(Cl)ccc32)C12CCCCC2
readout.units: %
viability, T/C: 98

molecule: NC1CCC(NC2CC2c2ccccc2)CC1 (stereo unspecified) + CCN1C(C(=O)NC23CCC(C(=O)O)(CC2)CC3)C(c2cccc(Cl)c2F)C2(C(=O)Nc3cc(Cl)ccc32)C12CCCCC2
readout.units: %
viability, T/C: 99

molecule: COc1c(OCCCN2CCOCC2)ccc2c3n(c(=NC(=O)c4cnc(N)nc4)nc12)CCN3 + CCN1C(C(=O)NC23CCC(C(=O)O)(CC2)CC3)C(c2cccc(Cl)c2F)C2(C(=O)Nc3cc(Cl)ccc32)C12CCCCC2
readout.units: %
viability, T/C: 78.7

Input CNC(C)C(=O)NC1CN(S(=O)(=O)c2cccc(S(=O)(=O)N3CCC4CCC(C(=O)NC(c5ccccc5)c5ccccc5)N4C(=O)C(NC(=O)C(C)NC)C3)c2)CCC2CCC(C(=O)NC(c3ccccc3)c3ccccc3)N2C1=O (stereo unspecified) + CCN1C(C(=O)NC23CCC(C(=O)O)(CC2)CC3)C(c2cccc(Cl)c2F)C2(C(=O)Nc3cc(Cl)ccc32)C12CCCCC2 . Output viability, T/C: 66.8

Input Cn1ncnc1[C@H]1c2n[nH]c(=O)c3cc(F)cc(c23)N[C@@H]1c1ccc(F)cc1 + CCN1C(C(=O)NC23CCC(C(=O)O)(CC2)CC3)C(c2cccc(Cl)c2F)C2(C(=O)Nc3cc(Cl)ccc32)C12CCCCC2 . Output viability, T/C: 87.1
